Documented self-cleavage across a set of variants
B1: LINE1-mini (parent)
chain: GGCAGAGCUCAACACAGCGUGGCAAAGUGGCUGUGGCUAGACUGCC

- Variants of: B1
- method: self-cleavage, relative activity (ratio to wild type); higher = more cleavage; in vitro, sequencing; the parent is a self-cleaving ribozyme

[
  {
    "variant_code": "A39C A41G",
    "self-cleavage": 0.1
  },
  {
    "variant_code": "A25U G44A",
    "self-cleavage": 0.28
  },
  {
    "variant_code": "U20A C46A",
    "self-cleavage": 0.76
  },
  {
    "variant_code": "C37U G44C",
    "self-cleavage": 0.05
  },
  {
    "variant_code": "A4C G7C",
    "self-cleavage": 0.17
  },
  {
    "variant_code": "A6C A16U",
    "self-cleavage": 0.09
  },
  {
    "variant_code": "G21U A24U",
    "self-cleavage": 1.01
  },
  {
    "variant_code": "A14U C23G",
    "self-cleavage": 0.15
  },
  {
    "variant_code": "G5U C23G",
    "self-cleavage": 0.12
  },
  {
    "variant_code": "C8U C10U",
    "self-cleavage": 0.08
  },
  {
    "variant_code": "A26G G33U",
    "self-cleavage": 0.07
  },
  {
    "variant_code": "U9C G35U",
    "self-cleavage": 0.03
  },
  {
    "variant_code": "A6G C37U",
    "self-cleavage": 0.03
  },
  {
    "variant_code": "U20A C23A",
    "self-cleavage": 1.15
  },
  {
    "variant_code": "A25G A39U",
    "self-cleavage": 0.81
  },
  {
    "variant_code": "G1A C8A",
    "self-cleavage": 0.88
  },
  {
    "variant_code": "C3G A14U",
    "self-cleavage": 0.32
  },
  {
    "variant_code": "U43C C45A",
    "self-cleavage": 0.08
  },
  {
    "variant_code": "G1C A12C",
    "self-cleavage": 0.02
  },
  {
    "variant_code": "C8G A14G",
    "self-cleavage": 0.08
  },
  {
    "variant_code": "G33C U38C",
    "self-cleavage": 0.04
  },
  {
    "variant_code": "C3A A41G",
    "self-cleavage": 0.22
  },
  {
    "variant_code": "C3A G5U",
    "self-cleavage": 0.28
  },
  {
    "variant_code": "C13G C18G",
    "self-cleavage": 0.07
  },
  {
    "variant_code": "C18G C31G",
    "self-cleavage": 0.04
  },
  {
    "variant_code": "A6G G21A",
    "self-cleavage": 0.23
  },
  {
    "variant_code": "U9G U34C",
    "self-cleavage": 0.06
  },
  {
    "variant_code": "G7C U38A",
    "self-cleavage": 0.07
  },
  {
    "variant_code": "C18A G21C",
    "self-cleavage": 0.96
  },
  {
    "variant_code": "A11U G40C",
    "self-cleavage": 0.02
  },
  {
    "variant_code": "G17U A26C",
    "self-cleavage": 0.23
  },
  {
    "variant_code": "C13U G30U",
    "self-cleavage": 0.15
  },
  {
    "variant_code": "C13A C31A",
    "self-cleavage": 0.06
  },
  {
    "variant_code": "A14C A16G",
    "self-cleavage": 0.1
  },
  {
    "variant_code": "G2U G33C",
    "self-cleavage": 0.02
  },
  {
    "variant_code": "U43A C45G",
    "self-cleavage": 0.08
  },
  {
    "variant_code": "A41C C42U",
    "self-cleavage": 0.05
  },
  {
    "variant_code": "C13G C37A",
    "self-cleavage": 0.13
  },
  {
    "variant_code": "G17U A25C",
    "self-cleavage": 0.12
  },
  {
    "variant_code": "G35C G40C",
    "self-cleavage": 0.08
  },
  {
    "variant_code": "A26C C45A",
    "self-cleavage": 0.8
  },
  {
    "variant_code": "C8A C37G",
    "self-cleavage": 0.1
  },
  {
    "variant_code": "U20A A39U",
    "self-cleavage": 0.62
  },
  {
    "variant_code": "A26G C42U",
    "self-cleavage": 0.13
  },
  {
    "variant_code": "C18U G22U",
    "self-cleavage": 1.21
  }
]
